system: MKN-45/Ubc-luc cells; test: Reporter gene specificity control (Ubc-luciferase), MKN-45; conditions: Homo sapiens, MKN-45, 24 h, read-out: Reporter gene assay MKN-45 IC50 [μM], MKN-45/Ubc-luc cells (YAP deleted, specificity control), 24 hours incubation
IC50 values for the compounds below.
metricName: IC50

compound="C[C@H]1c2c(cc(F)c(Cl)c2-c2c(OCCO)ccc(F)c2F)O[C@]1(CN)c1ccccc1 (atropisomer, axis not shown)" metricname=IC50 testresult="> 10 µM"
compound="NC[C@@]1(c2ccccc2)Cc2c(ccc(Cl)c2-c2c(C(N)=O)ccc(OCCO)c2F)O1 (atropisomer, axis not shown)" metricname=IC50 testresult="> 10 µM"
compound="CC(=O)NC1CCC(NC[C@@]2(c3ccccc3)Cc3c(cc(F)c(Cl)c3-c3c(C(N)=O)ccc(OC(F)F)c3F)O2)CC1 (single isomer, unassigned) [Example 56a]" metricname=IC50 testresult="> 10 µM"
compound="C[C@H]1c2c(cc(F)c(Cl)c2-c2c(C(N)=O)cnc(OCCO)c2F)O[C@]1(CN[C@H]1CC[C@](C)(O)CC1)c1ccccc1 (atropisomer, axis not shown)" metricname=IC50 testresult="> 10 µM"
compound="CNC[C@]1(c2ccccc2)Oc2cc(F)c(Cl)c(-c3c(C(N)=O)ccc(OC)c3F)c2[C@@H]1CO (atropisomer, axis not shown)" metricname=IC50 testresult="> 3.3 µM"
compound="C[C@]1(O)CC[C@H](NC[C@@]2(c3ccccc3)Cc3c(cc(F)c(Cl)c3-c3c(C(N)=O)ccc(-n4ccnc4)c3F)O2)CC1 (atropisomer, axis not shown) [Example 69a]" metricname=IC50 testresult="> 10 µM"
compound="CNC(=O)c1ccc(OC[C@H](C)O)c(F)c1-c1c(Cl)c(F)cc2c1C[C@](c1ccccc1)([C@@H]1CCCN1)N2 (atropisomer, axis not shown)" metricname=IC50 testresult="> 20 µM"
compound="C[C@H]1c2c(ccc(Cl)c2-c2c(C(N)=O)ccc(OC(F)F)c2F)O[C@]1(CN)c1ccccc1 (atropisomer, axis not shown)" metricname=IC50 testresult="> 10 µM"
compound="COCCOc1ccc(C(N)=O)c(-c2c(Cl)ccc3c2[C@H](O)[C@@](CN)(c2ccccc2)O3)c1F (atropisomer, axis not shown)" metricname=IC50 testresult="> 10 µM"
compound="CS(=O)(=O)[C@H]1CC[C@H](NC[C@@]2(c3ccccc3)Cc3c(cc(F)c(Cl)c3-c3c(C(N)=O)ccc(OC(F)F)c3F)O2)CC1 [Example 54b]" metricname=IC50 testresult="> 10 µM"
compound="COc1ccc(C(N)=O)c(-c2c(Cl)c(F)cc3c2C[C@](c2ccccc2)([C@@H]2CCCN2)N3)c1F (atropisomer, axis not shown)" metricname=IC50 testresult="15.5 µM"

---

target: His-humanTEAD4 217-434 / N-biotinylated YAP 60-100 (Homo sapiens (Human)); test: TR-FRET YAP-TEAD4 biochemical assay, alternative format; details: alternative format, marked with star *); 5 nM His-humanTEAD4 217-434, 10 nM N-biotinylated YAP 60-100
Sequence (Q15561 217-434): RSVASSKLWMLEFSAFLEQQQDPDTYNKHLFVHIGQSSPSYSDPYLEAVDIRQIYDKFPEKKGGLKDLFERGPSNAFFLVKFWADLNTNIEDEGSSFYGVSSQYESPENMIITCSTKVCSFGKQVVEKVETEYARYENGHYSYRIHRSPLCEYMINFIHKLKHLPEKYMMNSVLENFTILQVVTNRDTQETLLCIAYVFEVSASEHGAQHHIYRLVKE
metricName: IC50 (nM)

compound="NC(=O)c1cccc(F)c1-c1c(Cl)ccc2c1C[C@@](CN[C@H]1CC[C@@H](C(N)=O)CC1)(c1ccccc1)O2 (relative stereo) [Example 138b]" metricname=IC50 testresult=18
compound="NC(=O)c1cccc(F)c1-c1c(Cl)ccc2c1C[C@@](CN[C@H]1CC[C@H](C(N)=O)CC1)(c1ccccc1)O2 (relative stereo) [Example 138a]" metricname=IC50 testresult=18
compound="NC[C@@]1(c2ccccc2)Cc2c(cc(F)c(Cl)c2-c2c(F)cccc2C(N)=O)O1 [Example 32a]" metricname=IC50 testresult=33

---

molecular target: Avi-humanTEAD4 217-434 / Cy5 labeled humanYAP 60-100 (Homo sapiens (Human), UniProt Q15561); assay: TR-FRET YAP-TEAD4 in-vitro biochemical assay; conditions: 1 nM Avi-humanTEAD4 217-434, 20 nM Cy5-humanYAP 60-100, 1 h room temperature
Sequence (Q15561 217-434): as above
metricName: IC50 (nM)

compound="COc1ncc(C(N)=O)c(-c2c(Cl)c(F)cc3c2C[C@@](CN[C@H]2CC[C@](C)(O)CC2)(c2ccccc2)O3)c1F (atropisomer, axis not shown) [Example 66a]" unitstext=nM comparisonoperator== testresult=2
compound="NC(=O)c1ccc(OCCO)c(F)c1-c1c(Cl)c(F)cc2c1C[C@@](CN[C@H]1C[C@@H](C(F)F)C1)(c1ccccc1)O2 (relative stereo) [Example 140a]" unitstext=nM comparisonoperator== testresult=4
compound="COCCOc1ccc(C(N)=O)c(-c2c(Cl)c(F)cc3c2[C@H](C)[C@@](CN[C@H]2CC[C@@](C)(O)CC2)(c2ccccc2)O3)c1F (atropisomer, axis not shown) [Example 116b]" unitstext=nM comparisonoperator== testresult=1
compound="CS(=O)(=O)NC1CCC(NC[C@@]2(c3ccccc3)Cc3c(cc(F)c(Cl)c3-c3c(C(N)=O)ccc(OC(F)F)c3F)O2)CC1 (single isomer, unassigned) [Example 57a]" unitstext=nM comparisonoperator== testresult=3
compound="NC(=O)c1ccc(OC(F)F)c(F)c1-c1c(Cl)c(F)cc2c1C[C@@](CNCC1CC1)(c1ccccc1)O2 (atropisomer, axis not shown) [Example 50]" unitstext=nM comparisonoperator== testresult=30
compound="CNC(=O)[C@H]1CC[C@H](NC[C@@]2(c3ccccc3)Cc3c(ccc(Cl)c3-c3c(F)cccc3C(N)=O)O2)CC1 (relative stereo) [Example 139a]" unitstext=nM comparisonoperator== testresult=21
compound="CNC(=O)c1ccc(OC)c(F)c1-c1c(Cl)c(F)cc2c1C[C@](c1ccccc1)([C@@H]1CCCN1)O2 [Example 175]" unitstext=nM comparisonoperator== testresult=4
compound="NC(=O)c1ccc(OC(F)F)c(F)c1-c1c(Cl)c(F)cc2c1C[C@@](CN[C@H]1C[C@H](F)C1)(c1ccccc1)O2 (atropisomer, axis not shown) [Example 82]" unitstext=nM comparisonoperator== testresult=119
compound="NC(=O)c1ccc(OCCO)c(F)c1-c1c(Cl)c(F)cc2c1[C@H](O)[C@@](CNC1CCC1)(c1ccccc1)O2 (atropisomer, axis not shown) [Example 99]" unitstext=nM comparisonoperator== testresult=2
compound="COc1ccc(C(N)=O)c(-c2c(C(F)(F)F)ccc3c2C[C@@](CN)(c2ccccc2)O3)c1 (atropisomer, axis not shown) [Example 128]" unitstext=nM comparisonoperator== testresult=176
compound="NC[C@@]1(c2ccccc2)Cc2c(ccc(Cl)c2-c2c(C(N)=O)ccc(Cl)c2F)O1 (atropisomer, axis not shown) [Example 8]" unitstext=nM comparisonoperator== testresult=4
compound="CO[C@H]1c2c(cc(F)c(Cl)c2-c2c(C(N)=O)ccc(OC(F)F)c2F)O[C@]1(CN[C@H]1CC[C@H](O)CC1)c1ccccc1 (relative stereo) [Example 102a]" unitstext=nM comparisonoperator== testresult=3
compound="C[C@H]1c2c(cc(F)c(Cl)c2-c2c(C(N)=O)ccc(OC(F)F)c2F)O[C@]1(CN[C@H]1CC[C@@H](O)CC1)c1ccccc1 (atropisomer, axis not shown) [Example 115b]" unitstext=nM comparisonoperator== testresult=2
compound="NC[C@@]1(c2cccc3c2OC(F)(F)O3)Cc2c(ccc(Cl)c2-c2c(F)cccc2C(N)=O)O1 (atropisomer, axis not shown) [Example 30]" unitstext=nM comparisonoperator== testresult=143
compound="COCCOc1ccc(C(N)=O)c(-c2c(Cl)c(F)cc3c2[C@H](C)[C@@](CN[C@H]2CC[C@](C)(O)CC2)(c2ccccc2)O3)c1F (atropisomer, axis not shown) [Example 116a]" unitstext=nM comparisonoperator=< testresult=1
compound="CC1(NC[C@@]2(c3ccccc3)Cc3c(cc(F)c(Cl)c3-c3c(C(N)=O)ccc(OC(F)F)c3F)O2)CC1 (atropisomer, axis not shown) [Example 76]" unitstext=nM comparisonoperator== testresult=50
compound="COc1ccc(C(N)=O)c(-c2c(Cl)c(F)cc3c2[C@H](C)[C@@](CN[C@H]2CC[C@](C)(O)CC2)(c2cccnc2)O3)c1F (atropisomer, axis not shown) [Example 127]" unitstext=nM comparisonoperator== testresult=6
compound="NC[C@@]1(c2ccccc2)Cc2c(ccc(Cl)c2-c2c(C(N)=O)ccc(F)c2F)O1 (atropisomer, axis not shown) [Example 9]" unitstext=nM comparisonoperator== testresult=4
compound="CNC(=O)c1ccc(OC[C@H](C)O)c(F)c1-c1c(Cl)c(F)cc2c1C[C@](c1ccccc1)([C@@H]1CCCN1)N2 (atropisomer, axis not shown) [Example 172]" unitstext=nM comparisonoperator== testresult=15
compound="COc1ccc(C(N)=O)c(-c2c(Cl)ccc3c2[C@H](O)[C@@](CN)(c2ccccc2)O3)c1F (atropisomer, axis not shown) [Example 86]" unitstext=nM comparisonoperator== testresult=3
compound="Cn1nccc1NC(=O)c1ccc(F)c(F)c1-c1c(Cl)ccc2c1C[C@@](CN)(c1ccccc1)O2 (atropisomer, axis not shown) [Example 24]" unitstext=nM comparisonoperator== testresult=6
compound="CNC[C@]1(c2cccc(O)n2)Oc2cc(F)c(Cl)c(-c3c(C(N)=O)ccc(OC)c3F)c2[C@@H]1C (atropisomer, axis not shown) [Example 125]" unitstext=nM comparisonoperator== testresult=11
